Assay: Intrinsic clearance in dog liver microsomes assessed per mg of protein
Assay type: ADME, Canis lupus familiaris, Microsome
Property Label: microsomal CLint (µL/min/mg)

INSERT INTO assay_data (compound, property_label, val) VALUES
  ('CN(C)CCN1CCn2c(c(C3CCCCC3)c3ccc(C(=O)O)cc32)-c2ccccc2C1', 'microsomal CLint', 26),
  ('CN(C)CCN(C)[C@H]1COc2ccccc2-c2c(C3CCCCC3)c3ccc(C(=O)O)cc3n2C1', 'microsomal CLint', 3),
  ('CN(C)CCNC1COc2ccccc2-c2c(C3CCCCC3)c3ccc(C(=O)O)cc3n2C1 (racemic)', 'microsomal CLint', 7);

The measurements presented in this section are drawn from ChEMBL document CHEMBL1649090.
